Data origin: paper PMC7156458

- measurementProtocol: cytotoxicity in Drosophila l(2)mbn cells
- Format: cell-based
- testConditions: Drosophila, 0.04 µM, replicate 1, relative to DMSO 1%, read-out: % viability, viability 1
assayEndpoint: viability at 0.04 µM (%)
Provide the reading as a plain figure in %.

**Q:** Please give the measured viability at 0.04 µM for this molecule: C=C1CCC2C(C)(CCC=C(C)C)C(O)CCC2(C)C1Cc1c(OC)oc(C)c(C)c1=O (stereo not shown)
**A:** 78.2

---

- assaySystem: Aβ42 (Homo sapiens, UniProt P05067)
- Sequence (P05067 672-713): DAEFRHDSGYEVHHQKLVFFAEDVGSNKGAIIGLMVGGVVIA
- measurementProtocol: Th-T (thioflavin-T) assay of Aβ42 aggregation
- Assay type: biochemical
- testConditions: compound at 10; reading M61 of time course
assayEndpoint: Th-T fluorescence, mean of three wells

**Q:** Would you mind telling me what Th-T fluorescence, mean of three wells value was observed for C=C1CCC2C(C)(CCC=C(C)C)C(O)CCC2(C)C1Cc1c(OC)oc(C)c(C(=O)OC)c1=O (centres unmarked) [Compound 14] ?
**A:** 2.702

**Q:** What does the data say about its Th-T fluorescence, mean of three wells? Entry: C=C1CC[C@@H]2[C@](C)(CC[C@H]3O[C@H](C=C(C)C)C[C@@]23C)[C@@H]1Cc1c(OC)oc(CO)c(C)c1=O [Compound 20]
**A:** 3.461

**Q:** Need Th-T fluorescence, mean of three wells, item C=C1CCC2C(C)(CCC=C(C)C)C(O)CCC2(C)C1Cc1c(OC)oc(CO)c(C)c1=O (centres unmarked) [Compound 12]
**A:** 3.431

**Q:** Returns the measured Th-T fluorescence, mean of three wells for the input compound. Input: C=C1CCC2C(C)(CCC=C(C)C)C(O)CCC2(C)C1Cc1c(OC)oc(CO)c(C(=O)OC)c1=O (centres unmarked) [Compound 13]
**A:** 1.554

***
**Q:** Item under review: C=C1CC[C@@H]2[C@](C)(CC[C@H]3O[C@H](C=C(C)C)C[C@@]23C)[C@@H]1Cc1c(OC)oc(CO)c(C(=O)OC)c1=O [Compound 21] . Reported Th-T fluorescence, mean of three wells?
**A:** 0.414
